src = patent US20150175599A1

Target: hERG channel (Homo sapiens, UniProt Q12809)
Construct: expressed in transfected cells; host or cells: CHO (hERG-CHO), under Geneticin selection
Sequence (Q12809 whole entry): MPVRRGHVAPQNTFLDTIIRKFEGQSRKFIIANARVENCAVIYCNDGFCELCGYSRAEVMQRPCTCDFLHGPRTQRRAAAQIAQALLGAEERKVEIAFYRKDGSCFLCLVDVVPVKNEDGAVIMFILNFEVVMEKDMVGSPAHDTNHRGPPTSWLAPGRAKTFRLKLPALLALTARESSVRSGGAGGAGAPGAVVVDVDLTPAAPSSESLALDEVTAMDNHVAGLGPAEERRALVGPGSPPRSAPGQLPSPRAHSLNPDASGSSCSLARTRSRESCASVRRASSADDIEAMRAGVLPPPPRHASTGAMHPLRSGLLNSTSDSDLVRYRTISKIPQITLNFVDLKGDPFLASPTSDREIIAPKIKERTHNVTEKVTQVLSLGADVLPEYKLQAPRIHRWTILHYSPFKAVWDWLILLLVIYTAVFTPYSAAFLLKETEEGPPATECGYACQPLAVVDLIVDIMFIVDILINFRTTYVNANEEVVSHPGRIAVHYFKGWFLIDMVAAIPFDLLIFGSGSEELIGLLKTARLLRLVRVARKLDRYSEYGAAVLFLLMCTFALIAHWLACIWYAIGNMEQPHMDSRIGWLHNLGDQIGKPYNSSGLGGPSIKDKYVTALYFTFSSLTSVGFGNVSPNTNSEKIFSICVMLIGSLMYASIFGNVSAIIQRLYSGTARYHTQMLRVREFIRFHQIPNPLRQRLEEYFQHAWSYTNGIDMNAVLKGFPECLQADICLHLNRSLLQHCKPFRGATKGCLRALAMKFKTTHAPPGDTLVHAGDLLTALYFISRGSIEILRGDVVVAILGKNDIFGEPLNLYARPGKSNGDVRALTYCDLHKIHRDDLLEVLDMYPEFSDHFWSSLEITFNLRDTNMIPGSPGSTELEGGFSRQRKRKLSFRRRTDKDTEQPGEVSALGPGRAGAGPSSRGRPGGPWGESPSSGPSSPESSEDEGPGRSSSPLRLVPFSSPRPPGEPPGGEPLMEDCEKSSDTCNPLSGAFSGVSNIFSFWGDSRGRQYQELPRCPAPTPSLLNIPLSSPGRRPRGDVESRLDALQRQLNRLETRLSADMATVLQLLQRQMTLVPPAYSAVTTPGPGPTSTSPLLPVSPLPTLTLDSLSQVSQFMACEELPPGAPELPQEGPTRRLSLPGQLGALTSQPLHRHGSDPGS
Assay: hERG channel inhibition, automated patch clamp (IonWorks HT, hERG-CHO)
Type: cell-based
Settings: CHO cells expressing hERG, 10 μM compound, 600 s incubation, read-out: hERG Channel Inhibition % (at 10 μM), vehicle-subtracted values
Parameter measured: inhibition at 600 s, 10 µM

Here are 3 compounds together with their reported answers.
Chem smiles	Parameter measured	Reading
COc1cc(NC(=O)C(=O)c2c(C)n(Cc3ccc(Cl)cc3)c3cc(Cl)c(OC)cc23)ccn1	inhibition at 600 s, 10 µM	< 25%
COc1cc(NC(=O)C(=O)c2c(C)n(Cc3ccc(Cl)cc3)c3ccc([N+](=O)[O-])cc23)ccn1	inhibition at 600 s, 10 µM	25 to 50%
COc1cc(NC(=O)C(=O)c2c(C)n(Cc3ccc(Cl)cc3)c3ccc(NC(C)=O)cc23)ccn1	inhibition at 600 s, 10 µM	< 25%

Recorded inhibition at 600 s, 10 µM for COCc1ccc2c(c1)c(C(=O)C(=O)Nc1ccnc(OC)c1)c(C)n2Cc1ccc(Cl)cc1 , please?
25 to 50%

---

Overview of recorded IC50 for various compounds
Target: FAAH (Homo sapiens, UniProt O00519)
Construct: Reactions were initiated by adding 12.5 μg of brain microsome; tissue ABS, Inc; host or cells: human brain cerebral cortex, membrane/microsome fraction pooled from 3 donors
Sequence (O00519 whole entry): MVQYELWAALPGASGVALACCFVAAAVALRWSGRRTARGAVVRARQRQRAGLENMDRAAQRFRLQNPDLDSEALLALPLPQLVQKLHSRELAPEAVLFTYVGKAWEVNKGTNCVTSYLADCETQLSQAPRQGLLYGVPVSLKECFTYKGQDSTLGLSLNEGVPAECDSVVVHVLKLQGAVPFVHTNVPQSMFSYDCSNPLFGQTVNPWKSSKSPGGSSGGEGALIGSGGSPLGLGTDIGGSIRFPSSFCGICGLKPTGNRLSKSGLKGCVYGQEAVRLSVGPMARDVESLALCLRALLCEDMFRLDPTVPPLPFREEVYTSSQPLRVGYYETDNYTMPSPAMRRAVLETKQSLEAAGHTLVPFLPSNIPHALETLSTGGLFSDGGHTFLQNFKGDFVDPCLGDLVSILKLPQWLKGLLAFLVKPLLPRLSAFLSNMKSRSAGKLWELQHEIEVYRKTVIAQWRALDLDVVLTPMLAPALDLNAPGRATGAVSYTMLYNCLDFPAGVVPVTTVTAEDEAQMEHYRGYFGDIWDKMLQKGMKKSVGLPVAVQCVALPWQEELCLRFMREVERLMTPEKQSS
Test: FAAH inhibition, human brain membrane homogenate assay
Format: biochemical
Details: human brain homogenate; average activity; read-out: Human brain Extract FAAH IC50

Param item = COc1cc(NC(=O)C(=O)c2c(C)n(Cc3ccc(Cl)cc3)c3ccc(OC)c(Cl)c23)ccn1 [Compound 58] ; retrieve measured IC50.
< 100 nM

// same read-out, input: COc1cc(NC(=O)C(=O)c2c(C)n(Cc3ccc(Cl)cc3)c3cccnc23)ccn1 [Compound 3]
< 100 nM

---

Target: FAAH (Rattus norvegicus, UniProt P97612)
Construct: For the assay of FAAH activity in rat brain membrane (RBM) homogenates; tissue Charles River (animals); host or cells: rat whole brain, membrane fraction
Sequence (P97612 whole entry): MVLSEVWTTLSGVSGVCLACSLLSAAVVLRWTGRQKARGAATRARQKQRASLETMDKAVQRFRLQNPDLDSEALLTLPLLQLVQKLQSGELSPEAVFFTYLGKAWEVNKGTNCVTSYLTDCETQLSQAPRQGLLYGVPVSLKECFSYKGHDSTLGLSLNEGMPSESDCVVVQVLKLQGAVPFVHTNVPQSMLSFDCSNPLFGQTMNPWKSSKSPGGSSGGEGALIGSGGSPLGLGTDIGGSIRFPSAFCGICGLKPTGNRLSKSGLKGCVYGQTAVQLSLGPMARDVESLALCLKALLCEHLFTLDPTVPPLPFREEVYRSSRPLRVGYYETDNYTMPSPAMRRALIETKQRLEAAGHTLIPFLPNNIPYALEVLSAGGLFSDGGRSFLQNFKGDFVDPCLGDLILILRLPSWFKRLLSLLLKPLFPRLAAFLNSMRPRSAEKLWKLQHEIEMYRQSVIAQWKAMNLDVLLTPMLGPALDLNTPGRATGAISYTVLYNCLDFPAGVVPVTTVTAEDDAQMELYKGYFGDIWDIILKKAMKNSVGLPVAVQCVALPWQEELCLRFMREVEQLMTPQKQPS
Assay: FAAH inhibition, rat brain membrane homogenate assay
Type: biochemical
Conditions: rat brain homogenate; average activity; read-out: Rat Brain Extract FAAH IC50
Method: Adult rats (Charles River CD strain, female, 200 g) were anaesthetized with isofluorane and rapidly decapitated. Each brain was quickly removed and chilled in tubes (3 brains per tube) on ice. About 25 mL of “homogenization buffer” (20 mM HEPES buffer, pH 7.0, with 1 mM MgCl2) was added to 15 to 20 g of brain. The brains were homogenized on ice for 1 minute using an Omni GLH homogenizer (Omni International, Marietta, Ga.). […]
pIC50: −log10 of the molar value.
Parameter measured: pIC50

Consider the reported pIC50 for these compounds:
Chem smiles	Reading
COc1cc(NC(=O)C(=O)c2c(C)n(Cc3ccc(Cl)cn3)c3ccc(Cl)cc23)ccn1	> 7.00
COc1ccc2c(c1)c(C(=O)C(=O)Nc1ccnc(OC)c1)c(C)n2Cc1cnc(Cl)cn1	> 7.00
COc1cc(NC(=O)C(=O)c2c(C)n(Cc3ccc(Cl)cc3)c3ccc(O)cc23)ccn1	> 7.00
CNc1ccc2c(c1)c(C(=O)C(=O)Nc1ccnc(OC)c1)c(C)n2Cc1ccc(Cl)cc1	> 7.00

Tell me the measured pIC50 of COc1cc(NC(=O)C(=O)c2c(C)n(Cc3ccc(Cl)cc3)c3cccc(OC)c23)ccn1 , please.
> 7.00

Proceed to Cc1c(C(=O)C(=O)Nc2cccc(Cl)c2)c2cc(O)ccc2n1Cc1ccc(Cl)cc1
6.00 to 7.00

Do the same for COc1cc(NC(=O)C(=O)c2c(C)n(Cc3ccc(Cl)cn3)c3ccc(C)cc23)ccn1 please
> 7.00
